Molecular target: human EP4 (Homo sapiens)
Construct: expressed in transfected cells; host or cells: HEK293 cells transduced with EP4 BacMam virus (virus generated in SF9 cells)
Assay: cAMP Gs functional assay (HTRF cAMP dynamic-2) in HEK293 cells transfected with EP4 Bacmam virus
Type: cell-based
Settings: HEK293, HEK293 cells expressing human EP4; positive control 10 μM PGE2
Would you mind telling me the reported Emax of each entry?
Numeric answer only, unit % assumed.

Per the record, Cc1cc(O)ccc1-c1cccc(C(O)CCN2CCC(=O)N2CCc2ccc(C(=O)O)cc2)c1 (single isomer, unassigned) [1; isomer 1] has Emax of 97

Emax reported for this compound Cc1cc(C(N)=O)ccc1-c1cccc(C(O)CCN2CCC(=O)N2CCc2ccc(-c3nnn[nH]3)cc2)c1 (racemic) [9; racemate] : 97

Measured Emax of Cc1cc(S(N)(=O)=O)ccc1-c1cccc(C(O)CCN2CCC(=O)N2CCc2ccc(C(=O)O)cc2)c1 (racemic) [3; racemate] : 97

Record summary for Cc1cc(S(N)(=O)=O)ccc1-c1cccc(C(O)CCN2CCC(=O)N2CCc2cc(F)c(C(=O)O)c(F)c2)c1 (single isomer, unassigned) [8; isomer 1] : reported Emax = 96

For this compound ( Cc1cc(C(N)=O)ccc1-c1cccc(C(O)CCN2CCC(=O)N2CCc2cc(F)c(C(=O)O)c(F)c2)c1 (racemic) [5; racemate] ), measured Emax is 97

According to the records, this compound Cc1cc(S(N)(=O)=O)ccc1-c1cccc(C(O)CCN2CCC(=O)N2CCc2ccc(C(=O)O)c(O)c2)c1 (single isomer, unassigned) [6; isomer 1] displays Emax of 97

get_value(item= Cc1cc(C(N)=O)ccc1-c1cccc(C(O)CCN2CCC(=O)N2CCc2ccc(C(=O)O)cc2)c1 (single isomer, unassigned) [2; isomer 1] , readout=Emax) returns 95

Emax measured on Cc1cc(OS(N)(=O)=O)ccc1-c1cccc(C(O)CCN2CCC(=O)N2CCc2ccc(C(=O)O)cc2)c1 (racemic) [4; racemate] = 97

Entry Cc1cc(C(N)=O)ccc1-c1cccc(C(O)CCN2CCC(=O)N2CCc2ccc(-c3nnn[nH]3)cc2)c1 (single isomer, unassigned) [9; isomer 1] — recorded Emax = 93

// Cc1cc(O)ccc1-c1cccc(C(O)CCN2CCC(=O)N2CCc2ccc(C(=O)O)cc2)c1 (racemic) [1; racemate] : Emax value = 97

For reference, reported Emax for Cc1cc(C(N)=O)ccc1-c1cccc(C(O)CCN2CCC(=O)N2CCc2ccc(C(=O)O)c(O)c2)c1 (single isomer, unassigned) [7; isomer 1] stands at 99

Entry Cc1cc(C(N)=O)ccc1-c1cccc(C(O)CCN2CCC(=O)N2CCc2cc(F)c(C(=O)O)c(F)c2)c1 (single isomer, unassigned) [5; isomer 1] ; Emax = 88

====

Biological target: human EP4 (Homo sapiens, UniProt P35408)
Construct: expressed in transfected cells; host or cells: HEK293 cells transduced with EP4 BacMam virus (virus generated in SF9 cells)
Sequence (P35408 whole entry): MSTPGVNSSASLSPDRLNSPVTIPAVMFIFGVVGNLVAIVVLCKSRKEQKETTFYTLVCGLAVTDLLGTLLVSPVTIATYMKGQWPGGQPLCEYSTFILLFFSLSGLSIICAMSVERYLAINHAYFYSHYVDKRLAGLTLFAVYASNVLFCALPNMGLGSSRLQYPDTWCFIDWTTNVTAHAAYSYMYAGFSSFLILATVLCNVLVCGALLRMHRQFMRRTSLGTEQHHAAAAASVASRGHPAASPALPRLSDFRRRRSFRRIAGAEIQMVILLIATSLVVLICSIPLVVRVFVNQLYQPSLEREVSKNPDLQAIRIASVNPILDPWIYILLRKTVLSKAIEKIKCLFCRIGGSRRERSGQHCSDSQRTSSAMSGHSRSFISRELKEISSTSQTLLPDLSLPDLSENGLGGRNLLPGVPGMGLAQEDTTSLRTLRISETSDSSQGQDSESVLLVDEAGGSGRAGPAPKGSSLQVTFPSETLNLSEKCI
Experiment: cAMP Gs functional assay (HTRF cAMP dynamic-2) in HEK293 cells transfected with EP4 Bacmam virus
Format: cell-based
Conditions: HEK293 cells expressing human EP4; positive control 10 μM PGE2; unit assumed
For each entry below, report its cAMP human EP4 Emax value.
Form entry: value (%) — number only.

Param item: Cc1cc(C(N)=O)ccc1-c1cccc(C(O)CCN2CCC(=O)N2CCc2ccc(C(=O)O)cc2)c1 (single isomer, unassigned) [2; isomer 2] ; param system: human EP4 (Homo sapiens, UniProt P35408); output cAMP human EP4 Emax: 98

Short answer on human EP4 (Homo sapiens, UniProt P35408) for Cc1cc(O)ccc1-c1cccc(C(O)CCN2CCC(=O)N2CCc2ccc(C(=O)O)cc2)c1 (single isomer, unassigned) [1; isomer 2] , cAMP human EP4 Emax: 99

# cAMP human EP4 Emax measured on human EP4 (Homo sapiens, UniProt P35408) for item Cc1cc(S(N)(=O)=O)ccc1-c1cccc(C(O)CCN2CCC(=O)N2CCc2ccc(C(=O)O)c(O)c2)c1 (single isomer, unassigned) [6; isomer 2] = 96

====

Target: human EP4 (Homo sapiens, UniProt P35408)
Construct: expressed in transfected cells; host or cells: HEK293 cells transduced with EP4 BacMam virus (virus generated in SF9 cells)
Test: cAMP Gs functional assay (HTRF cAMP dynamic-2) in HEK293 cells transfected with EP4 Bacmam virus
Format: cell-based
Details: HEK293 cells expressing human EP4; positive control 10 μM PGE2; unit assumed
recorded-metric: cAMP human EP4 Emax (%)
Report the value in % with no unit label.

Entry under test: Cc1cc(C(N)=O)ccc1-c1cccc(C(O)CCN2CCC(=O)N2CCc2cc(F)c(C(=O)O)c(F)c2)c1 (single isomer, unassigned) [5; isomer 2] . Its cAMP human EP4 Emax was 96

Form field cAMP human EP4 Emax, entry Cc1cc(S(N)(=O)=O)ccc1-c1cccc(C(O)CCN2CCC(=O)N2CCc2ccc(C(=O)O)cc2)c1 (single isomer, unassigned) [3; isomer 2] : 98

// recorded cAMP human EP4 Emax for Cc1cc(C(N)=O)ccc1-c1cccc(C(O)CCN2CCC(=O)N2CCc2ccc(C(=O)O)c(O)c2)c1 (single isomer, unassigned) [7; isomer 2] : 97

For record Cc1cc(C(N)=O)ccc1-c1cccc(C(O)CCN2CCC(=O)N2CCc2ccc(-c3nnn[nH]3)cc2)c1 (single isomer, unassigned) [9; isomer 2] the listed cAMP human EP4 Emax is 96

response.value for Cc1cc(S(N)(=O)=O)ccc1-c1cccc(C(O)CCN2CCC(=O)N2CCc2cc(F)c(C(=O)O)c(F)c2)c1 (single isomer, unassigned) [8; isomer 2] (field: cAMP human EP4 Emax) = 99

The reported cAMP human EP4 Emax of the compound Cc1cc(OS(N)(=O)=O)ccc1-c1cccc(C(O)CCN2CCC(=O)N2CCc2ccc(C(=O)O)cc2)c1 (single isomer, unassigned) [4; isomer 2] was 97

====

Molecular target: human EP4 (Homo sapiens)
Construct: expressed in transfected cells; host or cells: HEK293 cells transduced with EP4 BacMam virus (virus generated in SF9 cells)
Assay: cAMP Gs functional assay (HTRF cAMP dynamic-2) in HEK293 cells transfected with EP4 Bacmam virus
Assay type: cell-based
Conditions: HEK293 cells expressing human EP4, 30 mins at 37° C., mid-point of the curve; read-out: cAMP human EP4 pEC50 (converted)
Answer each item with its documented EC50.
Please state the figure in nM; there is no need to write the unit.

// Cc1cc(S(N)(=O)=O)ccc1-c1cccc(C(O)CCN2CCC(=O)N2CCc2ccc(C(=O)O)cc2)c1 (single isomer, unassigned) [3; isomer 2] : EC50 value = 1.26

Summary for this compound, Cc1cc(S(N)(=O)=O)ccc1-c1cccc(C(O)CCN2CCC(=O)N2CCc2ccc(C(=O)O)c(O)c2)c1 (single isomer, unassigned) [6; isomer 2] : EC50 is 50.1

Kindly note the recorded EC50 for Cc1cc(C(N)=O)ccc1-c1cccc(C(O)CCN2CCC(=O)N2CCc2cc(F)c(C(=O)O)c(F)c2)c1 (single isomer, unassigned) [5; isomer 2] , which is 15.8

# EC50 of Cc1cc(C(N)=O)ccc1-c1cccc(C(O)CCN2CCC(=O)N2CCc2ccc(C(=O)O)c(O)c2)c1 (single isomer, unassigned) [7; isomer 1] = 3.98

What the record says about Cc1cc(C(N)=O)ccc1-c1cccc(C(O)CCN2CCC(=O)N2CCc2ccc(C(=O)O)c(O)c2)c1 (single isomer, unassigned) [7; isomer 2] : EC50 is 100

# EC50 of Cc1cc(C(N)=O)ccc1-c1cccc(C(O)CCN2CCC(=O)N2CCc2ccc(C(=O)O)cc2)c1 (racemic) [2; racemate] = 3.16

====

Target: human EP4 (Homo sapiens, UniProt P35408)
Construct: expressed in transfected cells; host or cells: HEK293 cells transduced with EP4 BacMam virus (virus generated in SF9 cells)
Experiment: cAMP Gs functional assay (HTRF cAMP dynamic-2) in HEK293 cells transfected with EP4 Bacmam virus
Type: cell-based
Conditions: HEK293 cells expressing human EP4, 30 mins at 37° C., mid-point of the curve; read-out: cAMP human EP4 pEC50 (converted)
Protocol: Cloning, Baculovirus generation, large scale infection of HEK293 cells and membrane preparation: Human prostaglandin E2 receptor 4 (EP4) was cloned into pBacMam expression vector (GeneScript, UK). […] Following P0 generation P1 virus was then generated ready for large scale infection and membrane preparation. […] The CAMP production was determined as manufacturer's instructions, before plates were read on a PheraStar fluorescence plate reader (BMG LabTech, Germany).
Label t when EC50 < 40 nM; otherwise f.

API: query returns whether the molecule falls strictly under 40 nM in EC50. Query: Cc1cc(C(N)=O)ccc1-c1cccc(C(O)CCN2CCC(=O)N2CCc2ccc(C(=O)O)cc2)c1 (single isomer, unassigned) [2; isomer 1]
f

Regarding Cc1cc(S(N)(=O)=O)ccc1-c1cccc(C(O)CCN2CCC(=O)N2CCc2ccc(C(=O)O)c(O)c2)c1 (single isomer, unassigned) [6; isomer 1] , kindly confirm whether its EC50 is beneath 40 nM.
t

Would you kindly verify if EC50 of Cc1cc(C(N)=O)ccc1-c1cccc(C(O)CCN2CCC(=O)N2CCc2ccc(C(=O)O)cc2)c1 (single isomer, unassigned) [2; isomer 2] is strictly less than 40 nM?
t

Does the reported EC50 of Cc1cc(C(N)=O)ccc1-c1cccc(C(O)CCN2CCC(=O)N2CCc2cc(F)c(C(=O)O)c(F)c2)c1 (single isomer, unassigned) [5; isomer 1] stay below 40 nM?
f

Is the reported EC50 for Cc1cc(C(N)=O)ccc1-c1cccc(C(O)CCN2CCC(=O)N2CCc2ccc(-c3nnn[nH]3)cc2)c1 (racemic) [9; racemate] strictly below 40 nM?
t

Lab log: compare recorded EC50 with 40 nM; is it strictly lower for Cc1cc(S(N)(=O)=O)ccc1-c1cccc(C(O)CCN2CCC(=O)N2CCc2cc(F)c(C(=O)O)c(F)c2)c1 (single isomer, unassigned) [8; isomer 1] ?
f

A record lists Cc1cc(O)ccc1-c1cccc(C(O)CCN2CCC(=O)N2CCc2ccc(C(=O)O)cc2)c1 (single isomer, unassigned) [1; isomer 2] . Is its EC50 below 40 nM?
t

Dear reviewer, please state whether Cc1cc(S(N)(=O)=O)ccc1-c1cccc(C(O)CCN2CCC(=O)N2CCc2ccc(C(=O)O)cc2)c1 (racemic) [3; racemate] has EC50 strictly beneath 40 nM.
t

Problem: For the molecule Cc1cc(C(N)=O)ccc1-c1cccc(C(O)CCN2CCC(=O)N2CCc2ccc(-c3nnn[nH]3)cc2)c1 (single isomer, unassigned) [9; isomer 2] , is EC50 under 40 nM?
t

In the record for Cc1cc(O)ccc1-c1cccc(C(O)CCN2CCC(=O)N2CCc2ccc(C(=O)O)cc2)c1 (racemic) [1; racemate] , is EC50 less than 40 nM?
t

Given the entry Cc1cc(OS(N)(=O)=O)ccc1-c1cccc(C(O)CCN2CCC(=O)N2CCc2ccc(C(=O)O)cc2)c1 (racemic) [4; racemate] , would its reported EC50 be below 40 nM?
t
